Heat shock protein HSP 90-alpha (Homo sapiens, UniProt P07900) IC50, compiled from various sources.

>  <molecule>
COc1cccc(C(=O)NC2CC3CCC(C2)N3c2ccc(C(=O)N[C@@H](C)c3ccc(N4CCN(C)CC4)cc3)cn2)c1C (some centres unmarked)

>  <IC50>
< 0.5 µM

$$$$
>  <molecule>
COc1cccc(C(=O)NC2CC3CCC(C2)N3c2ccc(C(=O)NCC3COC(C)(C)O3)cn2)c1C (centres unmarked)

>  <IC50>
2 to 10 µM

$$$$
>  <molecule>
CC(=O)c1ccc(N2[C@@H]3CC[C@H]2C[C@@H](NC(=O)c2ccc(C(N)=O)c(NC4CCNC4)c2)C3)nc1 (some centres unmarked)

>  <IC50>
< 0.5 µM

$$$$
>  <molecule>
COc1ccc(C(C)C)cc1-c1cc(-c2nnnn2CCc2ccccc2)c(O)cc1O

>  <IC50>
10 to 50 µM

$$$$
>  <molecule>
Cc1cnc(CNC(=O)c2ccc(N3[C@@H]4CC[C@H]3C[C@@H](NC(=O)c3ccc(C(N)=O)cc3)C4)nc2)cn1

>  <IC50>
1 to 2 µM

$$$$
>  <molecule>
CC[C@H](C)Nc1cc(C(=O)NC2CC3CCC(C2)N3c2ccc(C(=O)C3CC3)cn2)c(C)cc1C(N)=O (some centres unmarked)

>  <IC50>
< 0.5 µM

$$$$
>  <molecule>
CC(C)c1cc2c(cc1Sc1nc(C(N)=O)c(N)n1C)OCO2

>  <IC50>
56 µM

$$$$
>  <molecule>
CCC(=O)c1ccc(N2[C@@H]3CC[C@H]2C[C@@H](NC(=O)c2ccc(C(N)=O)c(NCC4CC4)c2)C3)nc1

>  <IC50>
< 0.5 µM

$$$$
